target under test: T1, hMFI2 Tf-like Domain 2 (TLD2), amino acids 366-709, displayed on yeast (human, UniProt P08582 366-709)
T1 construct: also called TFLD2; transferrin-like domain 2
T1 sequence: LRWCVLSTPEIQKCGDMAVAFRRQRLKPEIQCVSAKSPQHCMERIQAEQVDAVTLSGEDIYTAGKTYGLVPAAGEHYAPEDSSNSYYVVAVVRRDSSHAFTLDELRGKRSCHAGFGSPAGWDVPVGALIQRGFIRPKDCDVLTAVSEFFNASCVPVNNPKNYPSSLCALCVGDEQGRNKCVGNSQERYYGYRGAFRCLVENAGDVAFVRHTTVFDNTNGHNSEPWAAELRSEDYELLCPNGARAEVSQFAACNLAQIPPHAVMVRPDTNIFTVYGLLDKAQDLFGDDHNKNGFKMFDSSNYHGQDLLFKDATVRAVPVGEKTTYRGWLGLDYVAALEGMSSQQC
protocol details: flow cytometry on yeast displaying hMFI2 domains
reported metric: binding result

Assign binding result to the following record: SC57.28 (antibody, V domains shown) VH: EIQLQQSGPEMVKPGASVKVTCKASGYSFTDFNMHWMKQSHGKSLEWIGYIDPYKGGISYNQKFKGRATLTVDKSSSTAFMHLNSLTSDDSAVYYCARDYYGSRFPYYFDYWGQGTTLTVSS VL: DVVMTQTPLSLPVSLGDQASISCRSSQSLVHSNGNTYLHWYLQKPGQSPKLLIYRVSNRFSGVPDRFSGSGSGTDFTLKISRVEAEDLGVYLCSQSTHVPLTFGAGTKLELK binds

Assign binding result to the following record: SC57.5 (antibody, V domains shown) VH: EVQLQQSGPELVKPGASVKISCKASGYSFTDYYLHWVKQSHVKSLEWIGRINPYNGATSYNQIFKDKASLTVDKSSSTAYMDLHSLTSEDSAVYYCARGGDYDFPWYWGQGTTLTVSP VL: DIVMTQSHKFMSTSVGDRVSITCKASQDVYAAVAWYHQKPGQSPKLLIYWASTRHAGVPDRFTGSGSGTDYTLTISSVQAEDLALYYCQQHYRTPWTFGGGTKLEIK binds
